# Lookup of reported soluble fraction (log2) keyed by entry
# ASSAY PROCEDURE: soluble fraction after stress (log2 fold change); higher = more stays soluble; pooled small domains, quantitative proteomics
# STUDY CONDITIONS: stress: 50 degC

{"RESIDUE SEQUENCE": "HMSGEPVKSTLPGNVFKILVAVGDSVKKGQRMFVLEAMKMEIDVNAPKDGLVTSIEVQQGQTVANGQILAK", "soluble fraction (log2)": 0.0741}
{"RESIDUE SEQUENCE": "HMTSLSYINDLVTGATAQGLYRIVVPNQFMDDNMANVLRRTYGYQVQSRTSLMGTFDDYIISWAPPM", "soluble fraction (log2)": -2.45}
{"RESIDUE SEQUENCE": "HMVSLEEIINDLTSRIQTAVKMRFSDFVQNRKERVGVIVSFLGMLELVKQGIIDIKQEGHFADIEMETA", "soluble fraction (log2)": -0.296}
{"RESIDUE SEQUENCE": "HMAHETIDVAALRVGMFVQLDLGWLSHPFPLSSFRISSEDQIATIRALGLKRVRWSSEQSDS", "soluble fraction (log2)": -4.29}
